TGI reference
Tested on: SF-539 CNS
MEASUREMENT PROTOCOL: NCI tumour cell line growth inhibition, 48 h
All answers are understood in µM, so give the number only.

Examples with their reported TGI follow.
{"MOLECULE SMILES": "COc1cc2c3c(n(C)c(=O)c2cc1OC)-c1cc2c(cc1/C3=C/[C@H](N)CCCCN)OCO2", "ASSAY VALUE": 4.62}
{"MOLECULE SMILES": "O=C1C=CC(=O)c2c1ncc1c2nc2sccn21", "ASSAY VALUE": 42.4}
{"MOLECULE SMILES": "O=[N+]([O-])c1cccc(-c2cc(-c3cc(Br)ccc3O)[nH]n2)c1", "ASSAY VALUE": 11}

Then there is this compound:
Query block: For the compound "CC(C)CCC/C(CBr)=C(\Cl)CCl" , what TGI is on record?
Result block: 23.6

* * *

Test system: NCI-H226 lung
MEASUREMENT PROTOCOL: NCI tumour cell line growth inhibition, 48 h; in the data active = GI50 below about 0.43 µM; inactive = the rest
# output must be one of true (1) for active, false (0) for inactive

Some solved entries appear below for comparison.
{"MOLECULE": "Cc1cc(NC(=O)NC(=O)c2ccccc2NC(=O)CN)ccc1Oc1ncc(Br)cn1", "CLASSIFICATION": "true (1)"}
{"MOLECULE": "Cc1cc(C)c2c(N)c3cccc(C)c3nc2n1", "CLASSIFICATION": "false (0)"}
{"MOLECULE": "COc1ccc(-c2cc(-c3nnc(SCC(=O)Nc4ccc(C(C)=O)cc4)o3)c3ccccc3n2)cc1", "CLASSIFICATION": "false (0)"}
{"MOLECULE": "CO/N=C(/COc1c(-c2ccccc2)oc2ccccc2c1=O)c1ccc(F)cc1", "CLASSIFICATION": "false (0)"}

Query block: Entry "Cc1ccc(F)cc1NC(=O)c1cc(Cl)ccc1Nc1ccccc1" : call = ?
Result block: false (0)

Query block: Which result was noted for this molecule in the test: "O=C1C=CC(=O)c2c1ncc1c2nc2sccn21"
Result block: false (0)

Query block: How did this test come out for CC(C)CCC[C@@H](C)[C@H]1CCC2C3=CCC4C(=O)C=CC(=O)C4C3CC[C@@]21C (some centres not stated) ?
Result block: false (0)

* * *

Test system: K-562 leukemia
MEASUREMENT PROTOCOL: NCI tumour cell line growth inhibition, 48 h
Reported TGI values for a set of molecules

Examples from the recorded data:
{"MOLECULE": "CN1CCC(n2[nH]c(-c3ccccc3)c(Cc3ccccc3)c2=O)CC1", "TARGET OR SYSTEM": "K-562 leukemia", "READOUT TYPE": "TGI", "ASSAY VALUE": "> 100 µM"}
{"MOLECULE": "COc1cc2c(cc1OCCCN1CCN(c3cc(=O)oc4c(C)c(OC)ccc34)CC1)N=C[C@@H]1CCCN1C2=O", "TARGET OR SYSTEM": "K-562 leukemia", "READOUT TYPE": "TGI", "ASSAY VALUE": "> 20.9 µM"}
{"MOLECULE": "O=C(/C=C/c1ccccc1O)/C=C/c1ccccc1O", "TARGET OR SYSTEM": "K-562 leukemia", "READOUT TYPE": "TGI", "ASSAY VALUE": "> 100 µM"}
{"MOLECULE": "C/C(N=Nc1nc2ccccc2o1)=C1/C=CC=CN1O", "TARGET OR SYSTEM": "K-562 leukemia", "READOUT TYPE": "TGI", "ASSAY VALUE": "> 100 µM"}
{"MOLECULE": "COc1cc(-c2nc3nc(N4CCN(C)CC4)ccc3[nH]2)c(OC)c2[nH]c(COC(C)=O)nc12", "TARGET OR SYSTEM": "K-562 leukemia", "READOUT TYPE": "TGI", "ASSAY VALUE": "> 100 µM"}
{"MOLECULE": "O=C(OCc1ccccc1)N1c2cc([N+](=O)[O-])ccc2C(=O)N2CCC[C@H]2C1O (stereo partly specified)", "TARGET OR SYSTEM": "K-562 leukemia", "READOUT TYPE": "TGI", "ASSAY VALUE": "> 100 µM"}
{"MOLECULE": "O=C(CCCn1ccnc1[N+](=O)[O-])NCCn1ccnc1[N+](=O)[O-]", "TARGET OR SYSTEM": "K-562 leukemia", "READOUT TYPE": "TGI", "ASSAY VALUE": "> 100 µM"}
{"MOLECULE": "O=c1[nH]c2ccccc2c2oc(-c3ccccc3)nc12", "TARGET OR SYSTEM": "K-562 leukemia", "READOUT TYPE": "TGI", "ASSAY VALUE": "> 100 µM"}

Query block: Recorded TGI of "Cc1cccc2c1C/C(=C\c1cccc(C)c1C(=O)O)C2=O" , please.
Result block: > 100 µM

Query block: Please report the recorded TGI for "COC(=O)CCN(CCC(=O)OC)C1CC1" .
Result block: > 100 µM

Query block: Look at this molecule and give its reported TGI. "O=C(/C=C\c1ccc2ccccc2n1)c1cc(Cl)ccc1O"
Result block: 23.2 µM
